- Test system: Plasmodium falciparum
- ASSAY_SUMMARY: Resistance index, ratio of EC50 for chloroquine, mefloquine, pyrimethamine and atovaquone-resistant Plasmodium falciparum TM90-C2B to EC50 for chloroquine and pyrimethamine-resistant Plasmodium falciparum W2
- Assay type: functional
# Ratio EC50 listing for each entry below
Field format: numeric only.

Illustrative cases are given below, each with its answer.
1) O=c1c2c([nH]c3ccc(Cl)cc13)CCC(F)(F)C2 ... 1.52
2) O=c1c2c([nH]c3ccc(Oc4ccc(F)cc4)cc13)CCCC2 ... 0.28

response.value for O=c1c2c([nH]c3ccc([N+](=O)[O-])cc13)CCCC2 (field: Ratio EC50) = 0.12

For O=c1c2c([nH]c3ccc(-c4ccc(OC(F)(F)F)cc4)cc13)CCSC2 the compound record lists Ratio EC50 as 0.61

The reported value for Cc1cccc2c(=O)c3c([nH]c12)CCC(C)(C)C3 in terms of Ratio EC50 is 0.67

The reported Ratio EC50 of the compound O=c1c2c([nH]c3cc(-c4ccc(C(F)(F)F)cc4)ccc13)CCCC2 was 0.24

---

- ASSAY_SUMMARY: Partition coefficient, log D of the compound at pH 7.4 by HPLC analysis
- EXPERIMENTAL_SETUP: octanol/water
MEASURED_ENDPOINT: logD
Write the value as a bare number.

1. Cc1ccc2[nH]c3c(c(=O)c2c1)CCCC3 ... 1.7
2. O=c1c2c([nH]c3ccc(-c4ccc(OCc5ccccc5)cc4)cc13)CCSC2 ... 2.8
3. Cc1cc(C)c2[nH]c3c(c(=O)c2c1)CCCC3 ... 2.2
4. Cc1cc(Oc2ccc(OC(F)(F)F)cc2)ccc1-c1ccc2[nH]c3c(c(=O)c2c1)CSCC3 ... 3.6

response.value for O=c1c2c([nH]c3ccc(-c4ccc(C(F)(F)F)cc4)cc13)CCSC2 (field: logD) = 2.4

logD measured on CC(C)c1ccc2[nH]c3c(c(=O)c2c1)CCCC3 = 2.2

Record O=c1c2c([nH]c3c(F)ccc(F)c13)CCCC2 . Reported logD: 1.3

Sure, the documented logD for CCOC(=O)c1ccc2[nH]c3c(c(=O)c2c1)CCCC3 is 2.1

For record COc1cc(OC)c2[nH]c3c(c(=O)c2c1)CCCC3 the listed logD is 1.9

---

Below: a set of entries, each annotated with reported Papp.
- ASSAY_SUMMARY: Permeability of the compound by PAMPA method at pH 7.4
- Type: ADME
- EXPERIMENTAL_SETUP: read-out: permeability
State the answer as a number, implicitly in ×10⁻⁶ cm/s.

Recorded Papp, per entry:
1) Cc1ccc2c(=O)c3c([nH]c2c1)CCC(C)(C)C3 ... 82
2) O=c1c2c([nH]c3cc(Cl)cc(Cl)c13)CCCC2 ... 134
3) Oc1c2c(nc3ccc(Br)cc13)CCCC2 ... 63
4) O=c1c2c([nH]c3c(F)cc(F)cc13)CCCC2 ... 29
5) COc1ccc2c(=O)c3c([nH]c2c1)CCC3 ... 11
6) O=c1c2c([nH]c3c(Cl)ccc(Cl)c13)CCCC2 ... 288

Okay, next one:
The recorded Papp for CC1(C)CCc2[nH]c3cc(Cl)ccc3c(=O)c2C1 is 62

---

// reported Ratio EC50 per item
- System: Plasmodium falciparum
- ASSAY_SUMMARY: Resistance index, ratio of EC50 for chloroquine, mefloquine, pyrimethamine and atovaquone-resistant Plasmodium falciparum TM90-C2B to EC50 for chloroquine and pyrimethamine-resistant Plasmodium falciparum W2
- Format: functional
// no unit, no text: just the number

1. O=c1c2c([nH]c3cc(F)c(F)cc13)CCCC2 ... 0.91

O=c1c2c([nH]c3ccc(-c4cccc(Oc5ccc(F)cc5)c4)cc13)CCSC2 has a reported Ratio EC50 of 3.5

Measured Ratio EC50 of COc1cccc2c(=O)c3c([nH]c12)CC(C)(C)CC3 : 0.38

Consider O=c1c2c([nH]c3cc(Cl)ccc13)CCCC2 . Its measured Ratio EC50 is 0.89

Measured Ratio EC50 of O=c1c2c([nH]c3cc(Cl)c(Cl)cc13)CCCC2 : 1.06

Input CC(C)Oc1cc2[nH]c3c(c(=O)c2cc1Cl)CCCC3 . Output Ratio EC50: 4.88

Looking up O=c1c2c([nH]c3cc(C(F)(F)F)ccc13)CCC2 , I see its Ratio EC50 listed as 0.19

Reported Ratio EC50 ( Cc1cc(Cl)ccc1-c1ccc2[nH]c3c(c(=O)c2c1)CSCC3 ) = 0.67

Sure, the documented Ratio EC50 for Cc1cccc2c(=O)c3c([nH]c12)CCCC3 is 0.4

Measured Ratio EC50 of O=c1c2c([nH]c3ccc(-c4ccc(C(F)(F)F)cc4)cc13)CCSC2 : 2.9

For this compound ( Cc1cc(Oc2ccc(OC(F)(F)F)cc2)ccc1-c1ccc2[nH]c3c(c(=O)c2c1)CSCC3 ), measured Ratio EC50 is 11.8

The value of Ratio EC50 measured for the compound COc1ccc2c(=O)c3c([nH]c2c1)CCC(C)(C)C3 turned out to be 3.22

Reported Ratio EC50 of Cc1ccc2[nH]c3c(c(=O)c2c1)CCC(C)(C)C3 : 0.54

So, O=c1c2c([nH]c3ccc(-c4ccc(COc5ccccc5)cc4)cc13)CCSC2 ? Its Ratio EC50 was 15.9

Briefly, Ratio EC50 measured for COc1cccc2c(=O)c3c([nH]c12)CCC(C)(C)C3 : 0.31

// Ratio EC50 value for CN(C)CCC/N=C1\CC(c2ccc(Cl)cc2Cl)Cc2nc3ccc(Cl)cc3c(O)c21 (racemic) : 12

// recorded Ratio EC50 for COc1ccc2c(=O)c3c([nH]c2c1)CCC3 : 0.54
